target: human La antigen (Homo sapiens, UniProt P05455, T302N); construct: amino acids 100–324 of the human La antigen (plus T302N mutation); 6xHis (N); 6xHis (C); host or cells: Escherichia coli Rosetta cells; experiment: ALARM NMR; format: binding; conditions: 400 μM compound; 0 mM DTT
attribute measured: ALARM NMR, (-) DTT

INSERT INTO assay_data (mol_smiles, attribute_measured, result_value) VALUES
  ('CCCCCCCCCCCC1=C(O)C(=O)C=C(O)C1=O', 'ALARM NMR, (-) DTT', 'Positive'),
  ('Cc1cc(O)cc(C)c1C=C1C(=O)N(Cc2ccccc2)C(=O)N(Cc2ccccc2)C1=O', 'ALARM NMR, (-) DTT', 'Positive'),
  ('Cc1cc2c(C(C)C)c(O)c(O)c(C=O)c2c(O)c1-c1c(C)cc2c(C(C)C)c(O)c(O)c(C=O)c2c1O', 'ALARM NMR, (-) DTT', 'Positive');

---

Recorded Absorption max (nm), one value per entry.
experiment: Absorbance spectra; format: physicochemical; details: 25 mM sodium phosphate, pH 7.0
Numeric only. Scale: nm

The cases that follow already have their Absorption max (nm) on record.
INSERT INTO assay_data (mol_smiles, attribute_measured, result_value) VALUES
  ('COc1cc(/C=C/C(=O)CC(=O)/C=C/c2ccc(O)c(OC)c2)ccc1O', 'Absorption max (nm)', 425),
  ('O=C1/C(=C/c2ccc(O)c(Br)c2)CCC/C1=C\c1ccc(O)c(Br)c1', 'Absorption max (nm)', 355);

Query: Fill in the blank: the reported Absorption max (nm) of "Clc1ccc(-c2csc(NN=C3CCCC3)n2)cc1" is ____.
Result: 285

---

assay: UPLC-MS gross compound stability in assay buffer; details: 25 mM sodium phosphate, pH 7.0, 30 °C, no GSH or CoA
attribute measured: UPLC-MS buffer stability counter-screen

INSERT INTO results (mol_smiles, attribute_measured, result_value) VALUES
  ('COc1ccc(/C(Cl)=C(/C=O)c2ccc(OC)cc2)cc1', 'UPLC-MS buffer stability counter-screen', 'Grossly stable'),
  ('Cc1cc(O)cc(C)c1C=C1C(=O)N(Cc2ccccc2)C(=O)N(Cc2ccccc2)C1=O', 'UPLC-MS buffer stability counter-screen', 'Grossly stable'),
  ('C=C1C(=O)O[C@H](CCC)[C@H]1C(=O)O', 'UPLC-MS buffer stability counter-screen', 'Grossly stable');

---

experiment: Absorbance spectra; assay type: physicochemical; conditions: 25 mM sodium phosphate, pH 7.0
Listed here are compounds together with their documented Absorption max (nm).
Quick note: give the figure in nm, leave out the unit.

Sample answers from the record:
INSERT INTO measurements (compound, attribute_measured, result_value) VALUES
  ('O=c1c2cccnc2sn1Cc1ccc(C(F)(F)F)cc1', 'Absorption max (nm)', 315),
  ('COc1cc(/C=C/c2cc(/C=C/c3ccc(O)c(OC)c3)n(-c3ccc(C(=O)[O-])cc3)n2)ccc1O.[Na+]', 'Absorption max (nm)', 325),
  ('Cc1cc2c(C(C)C)c(O)c(O)c(C=O)c2c(O)c1-c1c(C)cc2c(C(C)C)c(O)c(O)c(C=O)c2c1O', 'Absorption max (nm)', 385),
  ('COc1ccc(/C(Cl)=C(/C=O)c2ccc(OC)cc2)cc1', 'Absorption max (nm)', 345);

Query: Report Absorption max (nm) for "Cc1cc(O)cc(C)c1C=C1C(=O)N(Cc2ccccc2)C(=O)N(Cc2ccccc2)C1=O" please.
Result: 425

Query: Would you kindly repeat that for "CCCCCCCCCCCC1=C(O)C(=O)C=C(O)C1=O" ?
Result: 315

Query: What do you have for "CC1=NN(c2ccc(C(=O)O)cc2)C(=O)/C1=C/c1ccc(-c2cc(C)c(C)cc2[N+](=O)[O-])o1" ?
Result: 405

Query: Same read-out for "COc1ccc(S(=O)(=O)ON=C2C=C(C)C(=O)C(C)=C2)cc1" ?
Result: 290

Query: Next compound: O=C(O[C@@H]1Cc2c(O)cc(O)cc2O[C@@H]1c1cc(O)c(O)c(O)c1)c1cc(O)c(O)c(O)c1 [Compound 10, (-)-Epigallocatechin gallate]
Result: 290

Query: Same read-out for "CCCCCCCCCCCCCCCc1cccc(O)c1C(=O)O" ?
Result: 305

Query: Next up: "CCCCCCCc1ccc(CCc2cccc(O)c2C(=O)O)cc1"
Result: 300

---

molecular target: human La antigen (Homo sapiens, UniProt P05455, T302N); construct: amino acids 100–324 of the human La antigen (plus T302N mutation); 6xHis (N); 6xHis (C); host or cells: Escherichia coli Rosetta cells; experiment: ALARM NMR; type: binding; details: 400 μM compound; with and without DTT
attribute measured: ALARM NMR interpretation

INSERT INTO measurements (mol_smiles, result_value) VALUES
  ('O=c1c2cccnc2sn1Cc1ccc(C(F)(F)F)cc1', 'Thiol-reactive'),
  ('C=C1C(=O)O[C@H](CCC)[C@H]1C(=O)O', 'Thiol-reactive'),
  ('CCCCCCCCCCCCCCC=C(C(=O)OCC)C(=O)OCC', 'Inert as tested'),
  ('COc1ccc(/C(Cl)=C(/C=O)c2ccc(OC)cc2)cc1', 'Inert as tested');

---

Target: human La antigen (Homo sapiens, UniProt P05455, T302N)
Construct: amino acids 100–324 of the human La antigen (plus T302N mutation); 6xHis (N); 6xHis (C); host or cells: Escherichia coli Rosetta cells
Sequence (P05455 100-324 T302N): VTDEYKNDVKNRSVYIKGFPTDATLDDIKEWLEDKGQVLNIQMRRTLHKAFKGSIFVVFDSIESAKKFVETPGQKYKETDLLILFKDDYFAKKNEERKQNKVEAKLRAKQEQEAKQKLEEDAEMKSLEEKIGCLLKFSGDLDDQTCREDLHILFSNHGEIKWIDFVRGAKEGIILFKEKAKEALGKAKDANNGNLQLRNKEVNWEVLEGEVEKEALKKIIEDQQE
Assay: ALARM NMR
Format: binding
Details: 400 μM compound; with and without DTT
Procedure: The gene encoding amino acids 100–324 of the human La antigen (plus T302N mutation) was cloned into pET28b + vector (Novagen) with both an N- and C-terminal 6xHis tag (addgene.org, plasmid ID 90209). The sequence identity of the ALARM NMR plasmid construct was verified by Sanger sequencing of the transgene region and next-generation sequencing of the whole plasmid. […] Data were analyzed in TopSpin™ 3.5 (Bruker). […]
attribute measured: ALARM NMR interpretation

INSERT INTO measurements (compound, result_value) VALUES
  ('CC1=NN(c2ccc(C(=O)O)cc2)C(=O)/C1=C/c1ccc(-c2cc(C)c(C)cc2[N+](=O)[O-])o1 [Compound 1, C646]', 'Thiol-reactive'),
  ('N#Cc1c2ccc(N)cc2nc2cc(N)ccc12 [Compound 22, CTx-1]', 'Inert as tested'),
  ('Cl.Cl.O=C(O)Cn1nnc(-c2ccc(CN(CCCCOc3ccc(CN4CCCC4)cc3)CCc3ccccc3)cc2)n1 [Compound 20, TH1834]', 'Inert as tested'),
  ('O=C(O[C@@H]1Cc2c(O)cc(O)cc2O[C@@H]1c1cc(O)c(O)c(O)c1)c1cc(O)c(O)c(O)c1 [Compound 10, (-)-Epigallocatechin gallate]', 'Thiol-reactive');

---

molecular target: human La antigen (Homo sapiens, UniProt P05455, T302N); construct: amino acids 100–324 of the human La antigen (plus T302N mutation); 6xHis (N); 6xHis (C); host or cells: Escherichia coli Rosetta cells; test: ALARM NMR; type: binding; conditions: 400 μM compound; 0 mM DTT
attribute measured: ALARM NMR, (-) DTT

Reference set (10 entries):
INSERT INTO results (compound, experimental_system, attribute_measured, result_value) VALUES
  ('O=C(O[C@@H]1Cc2c(O)cc(O)cc2O[C@@H]1c1cc(O)c(O)c(O)c1)c1cc(O)c(O)c(O)c1 [Compound 10, (-)-Epigallocatechin gallate]', 'human La antigen (Homo sapiens, UniProt P05455, T302N)', 'ALARM NMR, (-) DTT', 'Positive'),
  ('CCCCCCCCCCCCCCCc1cccc(O)c1C(=O)O', 'human La antigen (Homo sapiens, UniProt P05455, T302N)', 'ALARM NMR, (-) DTT', 'Positive'),
  ('COc1ccc(/C(Cl)=C(/C=O)c2ccc(OC)cc2)cc1', 'human La antigen (Homo sapiens, UniProt P05455, T302N)', 'ALARM NMR, (-) DTT', 'Negative'),
  ('COc1ccc(S(=O)(=O)ON=C2C=C(C)C(=O)C(C)=C2)cc1', 'human La antigen (Homo sapiens, UniProt P05455, T302N)', 'ALARM NMR, (-) DTT', 'Positive'),
  ('Clc1ccc(-c2csc(NN=C3CCCC3)n2)cc1', 'human La antigen (Homo sapiens, UniProt P05455, T302N)', 'ALARM NMR, (-) DTT', 'Positive'),
  ('COc1cc(/C=C/c2cc(/C=C/c3ccc(O)c(OC)c3)n(-c3ccc(C(=O)[O-])cc3)n2)ccc1O.[Na+]', 'human La antigen (Homo sapiens, UniProt P05455, T302N)', 'ALARM NMR, (-) DTT', 'Positive'),
  ('CCCCCCCc1ccc(CCc2cccc(O)c2C(=O)O)cc1', 'human La antigen (Homo sapiens, UniProt P05455, T302N)', 'ALARM NMR, (-) DTT', 'Positive'),
  ('C=C1C(=O)O[C@H](CCC)[C@H]1C(=O)O', 'human La antigen (Homo sapiens, UniProt P05455, T302N)', 'ALARM NMR, (-) DTT', 'Positive'),
  ('CCCC1(c2ccccc2)NC(=O)N(CC(=O)N(C)Cc2c(F)cccc2Cl)C1=O (stereo not shown)', 'human La antigen (Homo sapiens, UniProt P05455, T302N)', 'ALARM NMR, (-) DTT', 'Negative'),
  ('CC(=O)N[C@H](CCCCNC(=O)CSCCNC(=O)CCNC(=O)C(O)C(C)(C)COP(=O)(O)OP(=O)(O)OC[C@H]1O[C@@H](n2cnc3c(N)ncnc32)[C@H](O)[C@@H]1OP(=O)(O)O)C(N)=O (stereo partly shown)', 'human La antigen (Homo sapiens, UniProt P05455, T302N)', 'ALARM NMR, (-) DTT', 'Negative');

Query: Data request, read-out ALARM NMR, (-) DTT, for "O=c1c2cccnc2sn1Cc1ccc(C(F)(F)F)cc1"
Result: Positive

Query: And for "COc1cc(/C=C/C(=O)CC(=O)/C=C/c2ccc(O)c(OC)c2)ccc1O" ?
Result: Partial

Query: Then this compound: "Cl.Cl.O=C(O)Cn1nnc(-c2ccc(CN(CCCCOc3ccc(CN4CCCC4)cc3)CCc3ccccc3)cc2)n1"
Result: Negative

Query: Thanks! And "O=C1/C(=C/c2ccc(O)c(Br)c2)CCC/C1=C\c1ccc(O)c(Br)c1" ?
Result: Partial

Query: Would you kindly repeat that for "CCCCCCCCCCCCCCC=C(C(=O)OCC)C(=O)OCC" ?
Result: Negative
